target: UniProt:P35372
Sequence (P35372 whole entry): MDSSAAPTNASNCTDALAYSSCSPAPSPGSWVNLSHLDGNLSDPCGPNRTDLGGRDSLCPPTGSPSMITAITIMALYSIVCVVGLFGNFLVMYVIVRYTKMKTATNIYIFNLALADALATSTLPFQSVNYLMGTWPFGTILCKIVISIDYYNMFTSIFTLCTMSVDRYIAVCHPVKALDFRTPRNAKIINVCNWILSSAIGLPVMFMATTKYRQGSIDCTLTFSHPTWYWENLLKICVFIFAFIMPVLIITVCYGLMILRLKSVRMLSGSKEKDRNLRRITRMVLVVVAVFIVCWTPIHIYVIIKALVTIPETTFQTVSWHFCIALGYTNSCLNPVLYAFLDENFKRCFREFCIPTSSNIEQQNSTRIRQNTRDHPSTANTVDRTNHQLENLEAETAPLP
measurement_kind: IC50

Query string: What reported IC50 corresponds to "CCCNCc1ccc(CCn2ccc(OCc3ccc(F)cc3)cc2=O)nc1" on UniProt:P35372?
Result string: > 5 µM

* * *

target: Delta-type opioid receptor (Homo sapiens, UniProt P41143); assay: Inhibition of delta-type opioid receptor
Sequence (P41143 whole entry): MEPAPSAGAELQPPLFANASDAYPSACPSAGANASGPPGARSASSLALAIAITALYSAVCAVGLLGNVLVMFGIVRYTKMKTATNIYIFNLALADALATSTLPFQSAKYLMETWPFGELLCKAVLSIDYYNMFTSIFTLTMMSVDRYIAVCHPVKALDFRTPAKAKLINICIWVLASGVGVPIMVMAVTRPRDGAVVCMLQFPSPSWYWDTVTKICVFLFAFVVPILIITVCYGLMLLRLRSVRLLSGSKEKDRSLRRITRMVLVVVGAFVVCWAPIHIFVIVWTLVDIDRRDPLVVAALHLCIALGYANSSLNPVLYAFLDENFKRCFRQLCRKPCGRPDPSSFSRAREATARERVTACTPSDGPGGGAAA
pIC50: −log10 of the molar value.
measurement_kind: pIC50

structure_smiles_string	pIC50
CCCNCc1ccc(CCn2ccc(OCc3ccc(F)cc3)cc2=O)nc1	< 5.30

Next:
Query string: Give its pIC50 value. Item: "CCCNCc1ccc(CCn2ccc(OCc3ccc(F)cc3)cc2=O)cc1"
Result string: < 5.30

* * *

biological target: Histamine H3 receptor (Homo sapiens, UniProt Q9Y5N1)
Sequence (Q9Y5N1 whole entry): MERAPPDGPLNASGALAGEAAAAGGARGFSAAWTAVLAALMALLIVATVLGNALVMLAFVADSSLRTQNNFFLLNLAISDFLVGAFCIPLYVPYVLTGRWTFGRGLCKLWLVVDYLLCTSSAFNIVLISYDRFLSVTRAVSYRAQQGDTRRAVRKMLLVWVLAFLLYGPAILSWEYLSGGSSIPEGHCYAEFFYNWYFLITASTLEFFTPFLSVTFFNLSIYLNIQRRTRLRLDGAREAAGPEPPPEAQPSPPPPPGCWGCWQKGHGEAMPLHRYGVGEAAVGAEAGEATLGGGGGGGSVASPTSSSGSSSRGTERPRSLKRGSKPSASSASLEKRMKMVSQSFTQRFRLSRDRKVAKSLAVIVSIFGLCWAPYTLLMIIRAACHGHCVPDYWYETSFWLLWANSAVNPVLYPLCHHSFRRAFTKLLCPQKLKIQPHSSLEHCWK
pIC50: −log10 of the molar value.
measurement_kind: pIC50

Query string: Would you kindly share the measured pIC50 for "CCCNCc1ccc(CCn2ccc(OCc3ccc(F)cc3)cc2=O)nc1" ?
Result string: < 5.30

* * *

assay: Metabolic stability in human liver microsomes after 30 mmins; assay type: ADME, Microsome; details: read-out: Stability
Reported values of remaining at 30 min for individual entries
Give the value in % but do not write % after it.

structure_smiles_string	experimental_result
CCN(CC)Cc1ccc(CCn2ccc(OCc3ccc(F)cc3)cc2=O)cc1	54
CCCN(CCOC)Cc1ccc(CCn2ccc(OCc3ccc(F)cc3)cc2=O)cc1	0
CCCN(CC)Cc1ccc(CCn2ccc(OCc3ccc(F)cc3)cc2=O)cc1	26
O=c1cc(OCc2ccc(F)cc2)ccn1CCc1ccc(CN2CCCC2)cc1	60
CCCN(CCC)Cc1ccc(CCn2ccc(OCc3ccc(F)cc3)cc2=O)cc1	1

Query string: Which remaining at 30 min is reported for this compound? "CCCN(C)Cc1ccc(CCn2ccc(OCc3ccc(F)cc3)cc2=O)cc1"
Result string: 58

Query string: Look at this compound and give its reported remaining at 30 min. "CCCNCc1ccc(CCn2ccc(OCc3ccc(F)cc3)cc2=O)nc1"
Result string: 91

Query string: What value of measured remaining at 30 min is listed for "CCCN(Cc1ccc(CCn2ccc(OCc3ccc(F)cc3)cc2=O)cc1)C1CCCC1" ?
Result string: 1

Query string: What value of remaining at 30 min has been recorded for this entry: "CCCNCc1ccc(CCn2ccc(OCc3ccc(F)cc3)cc2=O)cn1"
Result string: 87

Query string: Quick check: remaining at 30 min of "CCCNCc1ccc(CCn2ccc(OCc3ccc(F)cc3)cc2=O)cc1" ?
Result string: 85

* * *

experiment: Inhibition of adrenergic alpha1 receptor
measurement_kind: IC50

structure_smiles_string	measurement_kind	experimental_result
CCCNCc1ccc(CCn2ccc(OCc3ccc(F)cc3)cc2=O)nc1	IC50	> 5 µM

Shift focus to the following entry.
Query string: What value of IC50 has been recorded for this entry: "CCCNCc1ccc(CCn2ccc(OCc3ccc(F)cc3)cc2=O)cc1"
Result string: > 5 µM

* * *

target: Kappa-type opioid receptor (Homo sapiens, UniProt P41145)
Sequence (P41145 whole entry): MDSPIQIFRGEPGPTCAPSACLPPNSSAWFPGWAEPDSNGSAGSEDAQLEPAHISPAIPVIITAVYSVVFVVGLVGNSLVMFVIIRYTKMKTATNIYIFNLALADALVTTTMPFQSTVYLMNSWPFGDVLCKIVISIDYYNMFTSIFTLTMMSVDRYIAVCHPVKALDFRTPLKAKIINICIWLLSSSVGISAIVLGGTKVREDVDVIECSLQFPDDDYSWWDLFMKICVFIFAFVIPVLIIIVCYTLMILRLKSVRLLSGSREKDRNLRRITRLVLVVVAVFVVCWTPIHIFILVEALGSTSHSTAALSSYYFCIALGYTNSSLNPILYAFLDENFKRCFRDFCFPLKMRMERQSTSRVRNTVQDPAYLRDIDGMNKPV
pIC50: −log10 of the molar value.
measurement_kind: pIC50

Query string: Please provide the recorded pIC50 for "CCCNCc1ccc(CCn2ccc(OCc3ccc(F)cc3)cc2=O)nc1" , tested on Kappa-type opioid receptor (Homo sapiens, UniProt P41145).
Result string: < 5.30

* * *

test: Metabolic stability in mouse liver microsomes after 30 mmins; assay type: ADME, Microsome; settings: read-out: Stability
measurement_kind: remaining at 30 min (%)
Please reply with the bare figure in % and do not write the unit itself.

Query string: Any idea what remaining at 30 min was measured for "CCCNCc1ccc(CCn2ccc(OCc3ccc(F)cc3)cc2=O)nc1" ?
Result string: 93

Query string: Would you mind telling me what remaining at 30 min value was observed for "CCCN(Cc1ccc(CCn2ccc(OCc3ccc(F)cc3)cc2=O)cc1)C(C)C" ?
Result string: 1

Query string: Query (compound): "CCCN(CC)Cc1ccc(CCn2ccc(OCc3ccc(F)cc3)cc2=O)cc1" ; field requested: remaining at 30 min
Result string: 6

Query string: Reported remaining at 30 min for "CCN(CC)Cc1ccc(CCn2ccc(OCc3ccc(F)cc3)cc2=O)cc1" : what is it?
Result string: 26

Query string: Look up remaining at 30 min: "CCCN(CCC)Cc1ccc(CCn2ccc(OCc3ccc(F)cc3)cc2=O)cc1"
Result string: 1

Query string: What does the data say about its remaining at 30 min? Entry: "CCCNCc1ccc(CCn2ccc(OCc3ccc(F)cc3)cc2=O)cn1"
Result string: 76

Query string: Which remaining at 30 min reading was recorded for the compound "CCCN(CCOC)Cc1ccc(CCn2ccc(OCc3ccc(F)cc3)cc2=O)cc1" ?
Result string: 0

Query string: # get_value(readout='remaining at 30 min', item= "CCCN(CCF)Cc1ccc(CCn2ccc(OCc3ccc(F)cc3)cc2=O)cc1" )
Result string: 0

Query string: Consider the compound shown here: "CCCNCc1ccc(COn2ccc(OCc3ccc(F)cc3)cc2=O)cc1" What is its recorded remaining at 30 min?
Result string: 74

Query string: Give its remaining at 30 min value. Item: "CCCN(Cc1ccc(CCn2ccc(OCc3ccc(F)cc3)cc2=O)cc1)C1CCCC1"
Result string: 1

Query string: Given the entry "CCCN(C)Cc1ccc(CCn2ccc(OCc3ccc(F)cc3)cc2=O)cc1" , report its measured remaining at 30 min.
Result string: 22

Query string: Name the recorded remaining at 30 min for "CCCN(Cc1ccc(CCn2ccc(OCc3ccc(F)cc3)cc2=O)cc1)CC(C)C" .
Result string: 0

Query string: Tell me the measured remaining at 30 min of "O=c1cc(OCc2ccc(F)cc2)ccn1CCc1ccc(CN2CCCC2)cc1" , please.
Result string: 39

Query string: Endpoint output: remaining at 30 min of "CCCNCc1ccc(CCn2ccc(OCc3ccc(F)cc3)cc2=O)cc1" . Value?
Result string: 62

* * *

Parameter pIC50, tested on Muscarinic acetylcholine receptor M1 (Homo sapiens, UniProt P11229), listed per item.
Sequence (P11229 whole entry): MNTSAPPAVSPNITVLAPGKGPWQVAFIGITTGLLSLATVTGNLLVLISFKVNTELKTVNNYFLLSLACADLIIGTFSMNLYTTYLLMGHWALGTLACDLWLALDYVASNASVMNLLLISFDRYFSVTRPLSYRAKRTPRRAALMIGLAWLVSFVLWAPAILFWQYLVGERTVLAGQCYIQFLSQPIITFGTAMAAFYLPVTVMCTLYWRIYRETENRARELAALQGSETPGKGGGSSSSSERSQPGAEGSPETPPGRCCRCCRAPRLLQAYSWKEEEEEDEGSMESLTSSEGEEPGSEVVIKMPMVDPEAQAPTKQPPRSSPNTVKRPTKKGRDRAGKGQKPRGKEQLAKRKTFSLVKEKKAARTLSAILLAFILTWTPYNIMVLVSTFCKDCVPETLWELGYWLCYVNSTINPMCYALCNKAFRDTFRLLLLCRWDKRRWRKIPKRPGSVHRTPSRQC
pIC50: −log10 of the molar value.

structure_smiles_string	pIC50
CCCNCc1ccc(CCn2ccc(OCc3ccc(F)cc3)cc2=O)cc1	< 5.30

Query string: Can you look up pIC50 on Muscarinic acetylcholine receptor M1 (Homo sapiens, UniProt P11229) for "CCCNCc1ccc(CCn2ccc(OCc3ccc(F)cc3)cc2=O)nc1" ?
Result string: < 5.30

* * *

target: Melanin-concentrating hormone receptor 1 (Homo sapiens, UniProt Q99705); assay: Displacement of [125I]MCH from human recombinant MCH1R expressed on CHOK1 cell membrane; assay type: cell membranes, CHO-K1
Sequence (Q99705 whole entry): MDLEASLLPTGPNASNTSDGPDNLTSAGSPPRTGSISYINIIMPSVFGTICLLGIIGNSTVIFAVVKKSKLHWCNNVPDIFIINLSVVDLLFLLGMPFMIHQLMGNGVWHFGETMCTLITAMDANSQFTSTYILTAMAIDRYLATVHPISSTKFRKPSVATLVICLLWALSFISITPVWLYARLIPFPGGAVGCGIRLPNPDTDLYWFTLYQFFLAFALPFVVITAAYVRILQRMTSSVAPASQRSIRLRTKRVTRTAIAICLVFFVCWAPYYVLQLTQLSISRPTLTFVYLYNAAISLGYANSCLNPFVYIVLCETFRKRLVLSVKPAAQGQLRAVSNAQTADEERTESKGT
measurement_kind: log10 of IC50 (log10 of the value in nM)
The common logarithm of IC50 in nM is what is listed.

Would you please look over these solved cases?
structure_smiles_string	log10 of IC50
CCCN(CCC)Cc1ccc(CCn2ccc(OCc3ccc(F)cc3)cc2=O)cc1	0.52
O=c1cc(OCc2ccc(F)cc2)ccn1CCc1ccc(CN2CCCC2)cc1	0.70
CCCN(Cc1ccc(CCn2ccc(OCc3ccc(F)cc3)cc2=O)cc1)CC(C)C	0.69
O=c1cc(OCc2ccc(F)cc2)ccn1Cc1cccc(OCCN2CCCC2)c1	1.46
CCCN(CC)Cc1ccc(CCn2ccc(OCc3ccc(F)cc3)cc2=O)cc1	0.64

Alright, here's another compound for you.
Query string: If you can, please state the reported log10 of IC50 value of "CCCNCc1ccc(CCn2ccc(OCc3ccc(F)cc3)cc2=O)cn1" .
Result string: 1.04

* * *

molecular target: Adenosine receptor A2a (Homo sapiens)
Sequence (P29274 whole entry): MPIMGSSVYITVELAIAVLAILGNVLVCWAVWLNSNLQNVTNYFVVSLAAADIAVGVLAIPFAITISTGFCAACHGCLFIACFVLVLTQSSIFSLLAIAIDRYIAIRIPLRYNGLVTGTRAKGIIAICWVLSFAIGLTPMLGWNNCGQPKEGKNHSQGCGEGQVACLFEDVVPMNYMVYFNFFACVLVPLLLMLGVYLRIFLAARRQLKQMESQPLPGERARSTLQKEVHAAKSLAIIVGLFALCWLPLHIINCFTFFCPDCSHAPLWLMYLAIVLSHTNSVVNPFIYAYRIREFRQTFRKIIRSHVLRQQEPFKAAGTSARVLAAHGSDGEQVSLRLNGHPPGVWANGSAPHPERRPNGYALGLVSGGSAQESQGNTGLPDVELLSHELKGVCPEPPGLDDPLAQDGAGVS
pIC50: −log10 of the molar value.
measurement_kind: pIC50

Query string: Entry under review: "CCCNCc1ccc(CCn2ccc(OCc3ccc(F)cc3)cc2=O)nc1" . Reported pIC50?
Result string: < 5.30

* * *

assay: Metabolic stability in human liver microsomes after 30 mmins; type: ADME, Microsome; settings: read-out: Stability
measurement_kind: remaining at 30 min (%)
Number only, in %; omit the unit.

Worked examples follow.
structure_smiles_string	measurement_kind	readout_unit	experimental_result
CCCN(CCF)Cc1ccc(CCn2ccc(OCc3ccc(F)cc3)cc2=O)cc1	remaining at 30 min	%	0
CCCNCc1ccc(COn2ccc(OCc3ccc(F)cc3)cc2=O)cc1	remaining at 30 min	%	72
CCCN(Cc1ccc(CCn2ccc(OCc3ccc(F)cc3)cc2=O)cc1)C(C)C	remaining at 30 min	%	4

Now look at this one.
Query string: Please look up its remaining at 30 min: "CCCN(Cc1ccc(CCn2ccc(OCc3ccc(F)cc3)cc2=O)cc1)CC(C)C"
Result string: 0

* * *

target: Melanin-concentrating hormone receptor 1 (Homo sapiens); test: Displacement of [125I]MCH from human recombinant MCH1R expressed on CHOK1 cell membrane; type: cell membranes, CHO-K1
pIC50: −log10 of the molar value.
Use criterion met when the recorded pIC50 is no lower than 8; use criterion not met when it is lower.

Reference set (3 entries):
structure_smiles_string	answer_label
CCCN(CCOC)Cc1ccc(CCn2ccc(OCc3ccc(F)cc3)cc2=O)cc1	criterion met
CCCN(Cc1ccc(CCn2ccc(OCc3ccc(F)cc3)cc2=O)cc1)C1CCCC1	criterion met
CCCNCc1ccc(COn2ccc(OCc3ccc(F)cc3)cc2=O)cc1	criterion not met

Please examine the following record next.
Query string: Quick check: does "O=c1cc(OCc2ccc(F)cc2)ccn1-c1cccc(OCCN2CCCC2)c1" have pIC50 greater than or equal to 8?
Result string: criterion not met
